biological target: hWRN(519-1227)_C-H3CV-GFP-10His (Homo sapiens, UniProt Q14191); experiment: Helicase Assay for WRN Inhibition (ATP-dependent, fluorescence based)
Sequence (Q14191 519-1227): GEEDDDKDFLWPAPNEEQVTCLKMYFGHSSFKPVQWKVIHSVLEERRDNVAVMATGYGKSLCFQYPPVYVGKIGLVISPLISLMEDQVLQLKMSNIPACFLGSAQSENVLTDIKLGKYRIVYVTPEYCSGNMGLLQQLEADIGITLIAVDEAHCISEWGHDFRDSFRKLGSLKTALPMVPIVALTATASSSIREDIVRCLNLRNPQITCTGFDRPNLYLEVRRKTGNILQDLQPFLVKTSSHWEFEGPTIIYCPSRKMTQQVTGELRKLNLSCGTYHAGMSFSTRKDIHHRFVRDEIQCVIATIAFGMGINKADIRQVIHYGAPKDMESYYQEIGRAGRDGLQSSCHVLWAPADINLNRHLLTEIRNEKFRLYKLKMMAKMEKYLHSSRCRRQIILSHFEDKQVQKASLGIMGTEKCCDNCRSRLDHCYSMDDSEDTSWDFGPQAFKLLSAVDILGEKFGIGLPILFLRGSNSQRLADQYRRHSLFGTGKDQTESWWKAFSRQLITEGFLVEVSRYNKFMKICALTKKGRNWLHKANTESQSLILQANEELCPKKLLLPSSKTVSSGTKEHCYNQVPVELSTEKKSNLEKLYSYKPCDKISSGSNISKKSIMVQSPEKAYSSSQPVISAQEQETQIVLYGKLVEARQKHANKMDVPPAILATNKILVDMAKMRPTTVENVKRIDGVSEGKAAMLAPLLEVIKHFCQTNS
Collected log10(IC50) values appear next to each entry.
// do not treat as linear: log10 of IC50, unit µM

These solved cases illustrate the format of a correct answer.
{"columns": ["compound", "log10(IC50)"],
 "data": [
  ["COC(=O)C=C1CN(C(=O)c2cnc(C(C)(C)C)nc2Oc2ccccc2)C1 [Example 191]", -0.04],
  ["CC1(C)Cc2cc(Oc3ccccc3)c(C(=O)N3CC(=CS(C)(=O)=O)C3)cc2C1=O [Example 249]", 1.59],
  ["CS(=O)(=O)C=C1CN(C(=O)c2cnc([C@H]3C[C@@H](C)C3)nc2Oc2ccccc2)C1 (single isomer, unassigned) [Example 50]", -0.66],
  ["O=C(NC1C=CS(=O)(=O)C1)c1cnc(C2CC2)nc1Oc1ccccc1 (stereo not shown) [Example 27]", 1.53],
  ["C[C@@H](/C=C/S(C)(=O)=O)NC(=O)c1cc2c(cc1Oc1ccccc1)CC(C)(C)C2=O [Example 248]", 1.80]
]}

Query :: log10(IC50) of CC1C(=CC#N)CN1C(=O)c1cnc(C2CC2)nc1Oc1ccccc1 (racemic) [Example 265] on hWRN(519-1227)_C-H3CV-GFP-10His (Homo sapiens, UniProt Q14191)?
Result :: 0.86

Query :: log10(IC50) of CS(=O)(=O)C1=CCN(C(=O)c2cnc(C3CC3)nc2Oc2ccccc2)C1 [Example 34] on hWRN(519-1227)_C-H3CV-GFP-10His (Homo sapiens, UniProt Q14191)?
Result :: 1.41

Query :: log10(IC50) of CC(C)(C)c1ncc(C(=O)N2CC(=CS(=O)(=O)C3CCOCC3)C2)c(Oc2ccccc2)n1 [Example 62] on hWRN(519-1227)_C-H3CV-GFP-10His (Homo sapiens, UniProt Q14191)?
Result :: -0.19

Query :: log10(IC50) of CC1(Cc2ncc(C(=O)N3CC(=CS(C)(=O)=O)C3)c(Oc3ccccc3)n2)CC1 [Example 41] on hWRN(519-1227)_C-H3CV-GFP-10His (Homo sapiens, UniProt Q14191)?
Result :: 0.15

Query :: log10(IC50) of CS(=O)(=O)C=CC1CN(C(=O)c2cnc(C3CC3)nc2Oc2ccccc2)C1 (racemic) [Example 22] on hWRN(519-1227)_C-H3CV-GFP-10His (Homo sapiens, UniProt Q14191)?
Result :: 0.54
